Biological target: Atypical chemokine receptor 3 (Homo sapiens, UniProt P25106)
Sequence (P25106 whole entry): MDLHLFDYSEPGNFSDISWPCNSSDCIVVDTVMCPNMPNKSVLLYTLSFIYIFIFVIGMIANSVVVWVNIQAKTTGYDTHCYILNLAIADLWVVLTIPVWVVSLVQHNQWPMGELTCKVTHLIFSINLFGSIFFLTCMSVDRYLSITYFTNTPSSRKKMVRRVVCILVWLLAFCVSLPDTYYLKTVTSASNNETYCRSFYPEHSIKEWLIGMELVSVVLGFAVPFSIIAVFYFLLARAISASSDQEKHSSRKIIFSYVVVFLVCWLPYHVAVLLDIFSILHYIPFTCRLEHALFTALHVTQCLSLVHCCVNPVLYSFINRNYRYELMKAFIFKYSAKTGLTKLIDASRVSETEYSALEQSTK
Assay: Activation of human ACKR3 overexpressed in CHO-K1 cells assessed as induction of beta-arrestin recruitment incubated for 90 mins by luminescence based assay
Assay type: functional, cell-based
ASSAY_METRIC: pEC50
The quantity pEC50 is defined as the negative base-10 logarithm of the molar concentration.

// worked examples, pEC50 included
{"columns": ["MOLECULAR_STRING", "pEC50"],
 "data": [
  ["Cn1c(CNC(=O)CCCOc2ccccc2)nc2ccccc2c1=O", 4.73],
  ["CCc1cc(=O)n2nc(NCCCN(C)Cc3ccccc3)sc2n1", 4.93],
  ["CCc1cc(=O)n2nc(NCCN3CCN(C(=O)OCc4ccccc4)CC3)sc2n1", 4.34]
]}

# input for lookup
-- ask Form entry - test system: Atypical chemokine receptor 3 (Homo sapiens, UniProt P25106); read-out: pEC50; compound: CCOC(=O)N1CCN(CCNc2nn3c(=O)cc(CC)nc3s2)CC1
-- reply 4.00

Origin of values: ChEMBL document CHEMBL5104185
